Tested on: PPARg:RXRa 270nM:90nM, anti-RXR (NR concentration 270 nM, RXRa partner concentration 90 nM)
assay details: PBM binding z-score (relative to random genomic background probes); higher = stronger binding; sequences stand for … in GC…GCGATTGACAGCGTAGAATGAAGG
Please respond with reported PBM binding z-score for every item in the list.

sequence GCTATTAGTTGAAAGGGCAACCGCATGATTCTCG , PBM binding z-score observed: 4.29

sequence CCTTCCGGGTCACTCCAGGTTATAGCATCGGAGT , PBM binding z-score observed: 4.36

sequence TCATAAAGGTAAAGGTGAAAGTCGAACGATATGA , PBM binding z-score observed: 5.2

sequence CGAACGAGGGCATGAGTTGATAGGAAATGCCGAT , PBM binding z-score observed: 1.43

sequence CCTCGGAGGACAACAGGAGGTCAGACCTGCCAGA , PBM binding z-score observed: 0.0936

sequence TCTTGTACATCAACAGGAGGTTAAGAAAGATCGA , PBM binding z-score observed: 1.36

sequence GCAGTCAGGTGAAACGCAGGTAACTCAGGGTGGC , PBM binding z-score observed: 0.222

sequence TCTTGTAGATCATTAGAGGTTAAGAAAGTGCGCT , PBM binding z-score observed: 1.81

sequence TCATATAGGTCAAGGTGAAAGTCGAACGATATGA , PBM binding z-score observed: 7.65

sequence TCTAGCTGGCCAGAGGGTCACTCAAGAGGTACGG , PBM binding z-score observed: 1.85

sequence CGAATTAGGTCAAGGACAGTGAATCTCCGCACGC , PBM binding z-score observed: 6.22

sequence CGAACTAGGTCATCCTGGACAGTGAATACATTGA , PBM binding z-score observed: 6.36

sequence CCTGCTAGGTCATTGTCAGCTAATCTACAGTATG , PBM binding z-score observed: 2.14

sequence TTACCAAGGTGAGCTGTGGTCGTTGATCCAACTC , PBM binding z-score observed: 0.0963

sequence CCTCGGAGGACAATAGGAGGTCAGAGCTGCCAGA , PBM binding z-score observed: 0.389

sequence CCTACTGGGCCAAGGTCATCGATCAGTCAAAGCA , PBM binding z-score observed: 4.7

sequence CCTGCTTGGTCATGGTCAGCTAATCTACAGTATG , PBM binding z-score observed: -0.154

sequence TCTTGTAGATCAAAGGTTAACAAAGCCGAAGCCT , PBM binding z-score observed: 8.41

sequence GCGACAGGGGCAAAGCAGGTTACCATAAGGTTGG , PBM binding z-score observed: 0.106

sequence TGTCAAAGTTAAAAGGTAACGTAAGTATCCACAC , PBM binding z-score observed: 3.15

sequence ATCGCTAGGTAAGACTCAGTTCAGTGAAGAACGC , PBM binding z-score observed: -0.615

sequence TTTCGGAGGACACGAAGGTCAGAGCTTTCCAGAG , PBM binding z-score observed: 1.32

sequence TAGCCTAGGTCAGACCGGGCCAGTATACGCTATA , PBM binding z-score observed: 0.617

sequence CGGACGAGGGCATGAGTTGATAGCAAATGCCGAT , PBM binding z-score observed: 0.682

sequence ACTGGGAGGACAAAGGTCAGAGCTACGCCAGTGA , PBM binding z-score observed: 7.23

sequence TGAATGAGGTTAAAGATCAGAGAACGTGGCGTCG , PBM binding z-score observed: 6.65

Data origin, for the record: the supplement of paper PMC6555819
